Listed next: entries and their corresponding melting point.

CCC(CC)N1CC(C(=O)c2ccc(Cc3ccc(F)cc3)o2)=C(O)C1=O; 140 to 141 °C

Prompt: If you can, please state the reported melting point value of CC(C)N1CC(C(=O)c2ccc(Cc3ccc(F)cc3C(N)=O)o2)=C(O)C1=O .
Response: 215 to 218 °C

Prompt: If you can, please state the reported melting point value of O=C(C1=C(O)C(=O)N(CCO)C1)c1occc1Cc1ccc(F)cc1 .
Response: 195 to 196 °C

---

Listed next: entries and their corresponding IC50.
Target: integrase (Human immunodeficiency virus type 1 group M subtype B)
Assay: Integrase inhibition assay (microtiter plate strand transfer, substrate DNA/target DNA, anti-digoxigenin ELISA)
Assay type: biochemical
Settings: concentration of the compound at percent inhibition 50%; 30° C. for 1 hour; OD at 405 nm; read-out: IC50 (converted)
Just so you know, I need the unit written after the number.

O=C1CCCC(C(=O)c2ccc(Cc3ccc(F)cc3)o2)=C1O; 1810 nM
CCCCN1CC(C(=O)c2ccc(Cc3ccc(F)cc3)o2)=C(O)C1=O; 2630 nM
O=C(c1ccc(Cc2ccc(F)cc2)o1)c1[nH]ccc(=O)c1O; 1560 nM

Consider the additional compound presented here.
Prompt: If you can, please state the reported IC50 value of CN1CC(c2cc(OCc3ccc(F)cc3)ncn2)=C(O)C1=O .
Response: 666 nM

Data origin: patent US9572813B2
